# system name: SARS-CoV-2 (Wuhan-Hu-1 strain) spike glycoprotein on pseudotyped virus particles (SARS-CoV-2, UniProt P0DTC2 14-1273)
# test summary: cell-based or functional assay
Simple rule here: Pseudo-neut IC50 Luciferase less than 5 nM is y, otherwise n.

Before answering, review these 3 worked examples.
Nb11 (VHH) VHH: HVQLVESGGGLVQAGGSLRLSCAVSGASAERVGWFRRAPGKEREFVAAIGANGGSTNYLDSVKGRFTISRDNAKNTVYLQMNSLKPQDTAVYYCAARNLETFDYTYWGRGTQVTVSS	y
Nb107 (VHH) VHH: HVQLVESGGGLVQAGGSLRLSCAASGRAIGIHRMAWFRQAPGKERAFVAAIQWTGDMPTYADSLKGRFTISADNAKNTVSLQMTSLKPDDTAVYYCAARSATTALYDYWGQGTQVTVSS	y
Nb28 (VHH) VHH: HVQLVESGGGLVQAGGSLRLSCAASGRTFSTSTMDMGWFRQAPGKEREFVGADSWNDGRTYYADSVKGRFTISRDNAKNTLYLQMNNLKPEDTAVYYCAAETYSLYEKSDSWGYWGQGTQVTVSS	n

Criterion: Pseudo-neut IC50 Luciferase strictly below 5 nM. Is it met by Nb93 (VHH) VHH: EVQLVESGGGLVQPGGSLRLSCAASGFTFSSYAMSWVRQAPGKGREWVAGITPGSGTFYADSVKGRFTISRDNAKNTLSLEINSLKPEDTALYYCAKCRQEFSWDFSSRDPDDFDYWGQGTQVTVSS ?
n

Criterion: Pseudo-neut IC50 Luciferase strictly below 5 nM. Is it met by Nb82 (VHH) VHH: DVQLVESGGGLVQAGGSLGLSCAASGSIFRLTAMGWYRQAPGKQRDLVTTITSAGIPHYADSVKGRFTISRDNAKNTVYLQMNGLKPEDTAVYYCYANTLNSQLLPRAYWGQGTQVTVSS ?
n

Criterion: Pseudo-neut IC50 Luciferase strictly below 5 nM. Is it met by Nb89 (VHH) VHH: HVQLVESGGGLVQAGGSLRLSCAASGGTFTTFRMAWFRQTPGKEREFVAASSWGFVNYADPVKGRFTISRDNAKNTVYLEMSSLKTEDTAVYYCAARNPGTGQYDYWGQGTQVTVSS ?
y

Criterion: Pseudo-neut IC50 Luciferase strictly below 5 nM. Is it met by Nb78 (VHH) VHH: QVQLVESGGGLVQAGGSLRLSCAISGASANRVGWFRRAPGKEREFVAAIGASGGMTNYLDSVKGRFTISRDNAKNTVYLQMNSLKPQDTAVYYCAARNIETAEYTYWGQGTQVTVSS ?
y
